Field: 1-D Distance.npi. Provide a value for each of the compounds that follow.
# system: Rlig1-AMP (Homo sapiens)
# Construct: made in house; host or cells: E. coli BL21 (DE3), pET15b-Rlig1
# Sequence (Q8N999 whole entry): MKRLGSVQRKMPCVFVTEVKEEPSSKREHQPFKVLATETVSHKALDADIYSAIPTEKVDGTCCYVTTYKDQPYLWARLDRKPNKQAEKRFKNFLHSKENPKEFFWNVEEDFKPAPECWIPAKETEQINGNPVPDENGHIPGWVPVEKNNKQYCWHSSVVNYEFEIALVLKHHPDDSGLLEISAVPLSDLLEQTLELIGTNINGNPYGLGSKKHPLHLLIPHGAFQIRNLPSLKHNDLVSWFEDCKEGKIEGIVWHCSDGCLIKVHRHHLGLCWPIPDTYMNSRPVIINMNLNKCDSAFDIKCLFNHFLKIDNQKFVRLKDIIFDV
# measurement.notes: FRET-based high-throughput screening of inhibitors for Rlig1-AMP
# Format: biochemical
# test.conditions: HTS hits, MedChemExpress library

Which 1-D Distance.npi value belongs to C/C1=C2/[N-]C([C@H](CC(N)=O)[C@@]2(C)CCC(=O)NC[C@@H](C)OP(=O)([O-])O[C@H]2[C@@H](O)[C@@H](n3cnc4cc(C)c(C)cc43)O[C@@H]2CO)[C@]2(C)N=C(/C(C)=C3N=C(/C=C4N=C1[C@@H](CCC(N)=O)C\4(C)C)[C@@H](CCC(N)=O)[C@]\3(C)CC(N)=O)[C@@H](CCC(N)=O)[C@]2(C)CC(N)=O.CC(=O)[O-].[Co+3] [Hydroxocobalamin (acetate)] ?
78.9236

Which 1-D Distance.npi value belongs to CC(=O)[C@]1(O)Cc2c(O)c3c(c(O)c2[C@@H](O[C@H]2C[C@H](N)[C@H](O)[C@H](C)O2)C1)C(=O)c1ccccc1C3=O.Cl [Idarubicin (hydrochloride)] ?
74.8199

Which 1-D Distance.npi value belongs to `CC(=O)Nc1ccc(S(=O)(=O)[O-])c2cc(S(=O)(=O)[O-])c(N=Nc3ccc(N=Nc4ccc(S(=O)(=O)[O-])cc4)c4ccc(S(=O)(=O)[O-])cc34)c(O)c12.[Na+].[Na+].[Na+].[Na+]` ?
98.2105

Which 1-D Distance.npi value belongs to COS(=O)(=O)[O-].C[n+]1c2ccccc2nc2ccccc21 [Phenazine (methylsulfate)] ?
78.9166

Which 1-D Distance.npi value belongs to CN(C)CCOC(=O)COc1ccc(Cl)cc1.Cl [Meclofenoxate (hydrochloride)] ?
72.0073
